# Target of assay: human Class I PI3 kinase γ (Homo sapiens (Human), UniProt P48736)
# Sequence (P48736 whole entry, canonical isoform): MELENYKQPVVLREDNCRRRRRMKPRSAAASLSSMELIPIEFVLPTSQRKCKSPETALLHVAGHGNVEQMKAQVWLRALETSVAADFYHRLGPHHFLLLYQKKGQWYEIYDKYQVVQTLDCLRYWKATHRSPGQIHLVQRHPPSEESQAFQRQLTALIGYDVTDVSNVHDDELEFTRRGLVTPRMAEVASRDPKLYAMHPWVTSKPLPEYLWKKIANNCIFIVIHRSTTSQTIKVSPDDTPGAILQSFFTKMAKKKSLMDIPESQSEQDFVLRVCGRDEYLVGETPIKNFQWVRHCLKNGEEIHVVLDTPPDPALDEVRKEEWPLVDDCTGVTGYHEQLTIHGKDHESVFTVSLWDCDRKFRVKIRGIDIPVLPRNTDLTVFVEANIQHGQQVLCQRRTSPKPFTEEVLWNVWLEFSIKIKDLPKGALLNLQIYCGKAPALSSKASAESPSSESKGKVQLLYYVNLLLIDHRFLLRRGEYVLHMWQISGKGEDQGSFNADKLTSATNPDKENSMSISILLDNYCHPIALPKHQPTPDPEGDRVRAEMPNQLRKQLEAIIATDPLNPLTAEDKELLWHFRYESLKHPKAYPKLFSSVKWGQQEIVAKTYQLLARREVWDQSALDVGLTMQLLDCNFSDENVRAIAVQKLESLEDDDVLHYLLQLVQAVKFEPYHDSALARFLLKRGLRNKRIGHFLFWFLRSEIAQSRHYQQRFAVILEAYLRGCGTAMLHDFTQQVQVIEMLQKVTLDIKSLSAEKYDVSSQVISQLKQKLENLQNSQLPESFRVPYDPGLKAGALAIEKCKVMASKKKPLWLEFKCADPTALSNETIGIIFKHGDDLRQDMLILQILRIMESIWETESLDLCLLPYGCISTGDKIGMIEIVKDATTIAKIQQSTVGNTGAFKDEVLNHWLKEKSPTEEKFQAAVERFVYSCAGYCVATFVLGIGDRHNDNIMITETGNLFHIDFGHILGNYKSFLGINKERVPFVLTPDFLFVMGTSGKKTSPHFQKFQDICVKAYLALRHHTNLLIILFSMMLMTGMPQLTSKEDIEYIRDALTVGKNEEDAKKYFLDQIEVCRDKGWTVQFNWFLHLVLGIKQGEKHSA
# Assay text: PI3-Kinase Promega ADP-Glo Max assay, γ isoform
# Cond: 40 nM kinase, 3 mM ATP, 500 uM diC8-PtdInsP; read-out: Promega γ PI3K IC50
Measurement name: IC50

Example entries begin here.
Chemical smiles	IC50
C[C@H](NC(=O)c1c(N)nn2cccnc12)c1cc2cccc(Cl)c2c(=O)n1CCNS(C)(=O)=O	10 to 100 nM
Cc1ccnc2c(C(=O)N[C@@H](C)c3cc4cccc(Cl)c4c(=O)n3-c3ccccc3)c(N)nn12	500 to 1000 nM
C[C@H](NC(=O)c1c(N)nn2cccnc12)c1cc2cccc(Cl)c2c(=O)n1CCc1nnn[nH]1	10 to 100 nM
C[C@H](NC(=O)c1nccnc1N)c1oc2ccc(F)cc2c(=O)c1-c1ccccc1	1000 to 10000 nM
C[C@H](NC(=O)c1c(N)nn2cccnc12)c1nc2ccccc2c(=O)n1-c1ccccc1	100 to 500 nM

Please state recorded IC50 (tested on human Class I PI3 kinase γ (Homo sapiens (Human), UniProt P48736)) of C[C@H](NC(=O)c1c(N)nn2cccnc12)c1cc2cccc(Cl)c2c(=O)n1CCc1ncn[nH]1
500 to 1000 nM

---

# Target of assay: p110 δ (RAJI cells) (Homo sapiens (Human), UniProt O00329)
# Assay text: PI3K-δ selective cellular assay: phospho-AKT in anti-human IgM stimulated RAJI cells
# Cond: serum-starved RAJI cells stimulated with anti-human IgM
# Source text: A compound's ability in selectively inhibiting PI3K-δ can be assessed using RAJI cells, i.e., B lymphocyte cells derived from lymphoma patients. Briefly, serum-starved RAJI cells are stimulated with anti-human IgM, thereby causing signaling through the B-cell receptors, as described in, for example, He et al., Leukemia Research (2009) 33: 798-802. B-cell receptor signaling is important for the activation, differentiation, and survival of B cells and certain B-cell derived cancers. […]
pIC50: −log10 of the molar value.
Measurement name: pIC50

Compound	Result
C#CCCn1c([C@H](C)NC(=O)c2c(N)nn3cccnc23)cc2cccc(Cl)c2c1=O	6.30 to 7.00
C[C@H](NC(=O)c1c(N)nn2cccnc12)c1nc2cccc(Cl)c2c(=O)n1-c1ccc(F)c(F)c1	6.30 to 7.00
COc1ccccc1-n1c([C@H](C)NC(=O)c2c(N)nn3cccnc23)cc2cccc(Cl)c2c1=O	6.30 to 7.00
C[C@H](NC(=O)c1c(N)nn2cccnc12)c1cc2cccc(Cl)c2c(=O)n1CCc1cnn[nH]1	6.30 to 7.00
C[C@H](NC(=O)c1c(N)nn2cccnc12)c1cc2cccc(Cl)c2c(=O)n1-c1ccc(O)cc1	8.00 to 9.00

Please state recorded pIC50 (tested on p110 δ (RAJI cells) (Homo sapiens (Human), UniProt O00329)) of CC(=O)Cc1cccc2nc([C@H](C)NC(=O)c3c(N)nn4cccnc34)n(-c3ccccc3)c(=O)c12
6.30 to 7.00

Please state recorded pIC50 (tested on p110 δ (RAJI cells) (Homo sapiens (Human), UniProt O00329)) of C[C@H](NC(=O)c1c(N)nn2cccnc12)c1cc2cccc(Cl)c2c(=O)n1CCCNS(C)(=O)=O
8.00 to 9.00

Please state recorded pIC50 (tested on p110 δ (RAJI cells) (Homo sapiens (Human), UniProt O00329)) of C[C@H](NC(=O)c1c(N)nn2cccnc12)c1cc2cccc(Cl)c2c(=O)n1CCNS(C)(=O)=O
7.00 to 8.00

Please state recorded pIC50 (tested on p110 δ (RAJI cells) (Homo sapiens (Human), UniProt O00329)) of C[C@H](NC(=O)c1c(N)nn2cccnc12)c1cc2cccc(Cl)c2c(=O)n1CCc1ccccc1
7.00 to 8.00

Please state recorded pIC50 (tested on p110 δ (RAJI cells) (Homo sapiens (Human), UniProt O00329)) of C[C@H](NC(=O)c1c(N)nn2cccnc12)c1cc2cccc(CC(=O)C(C)(C)C)c2c(=O)n1-c1ccccc1
6.00 to 6.30

Please state recorded pIC50 (tested on p110 δ (RAJI cells) (Homo sapiens (Human), UniProt O00329)) of C[C@H](NC(=O)c1c(N)nn2cccnc12)c1nc2ccccc2c(=O)n1-c1ccccc1
7.00 to 8.00

Please state recorded pIC50 (tested on p110 δ (RAJI cells) (Homo sapiens (Human), UniProt O00329)) of CC(C)C(=O)Cc1cccc2cc([C@H](C)NC(=O)c3c(N)nn4cccnc34)n(-c3ccccc3)c(=O)c12
6.30 to 7.00

Please state recorded pIC50 (tested on p110 δ (RAJI cells) (Homo sapiens (Human), UniProt O00329)) of C[C@H](NC(=O)c1c(N)nn2cccnc12)c1cc2cccc(Cl)c2c(=O)n1CCc1noc(C(C)(C)C)n1
6.30 to 7.00

---

# Target of assay: p110 γ (RAW264.7 cells) (Mus musculus (Mouse))
# Sequence (Q9JHG7 whole entry): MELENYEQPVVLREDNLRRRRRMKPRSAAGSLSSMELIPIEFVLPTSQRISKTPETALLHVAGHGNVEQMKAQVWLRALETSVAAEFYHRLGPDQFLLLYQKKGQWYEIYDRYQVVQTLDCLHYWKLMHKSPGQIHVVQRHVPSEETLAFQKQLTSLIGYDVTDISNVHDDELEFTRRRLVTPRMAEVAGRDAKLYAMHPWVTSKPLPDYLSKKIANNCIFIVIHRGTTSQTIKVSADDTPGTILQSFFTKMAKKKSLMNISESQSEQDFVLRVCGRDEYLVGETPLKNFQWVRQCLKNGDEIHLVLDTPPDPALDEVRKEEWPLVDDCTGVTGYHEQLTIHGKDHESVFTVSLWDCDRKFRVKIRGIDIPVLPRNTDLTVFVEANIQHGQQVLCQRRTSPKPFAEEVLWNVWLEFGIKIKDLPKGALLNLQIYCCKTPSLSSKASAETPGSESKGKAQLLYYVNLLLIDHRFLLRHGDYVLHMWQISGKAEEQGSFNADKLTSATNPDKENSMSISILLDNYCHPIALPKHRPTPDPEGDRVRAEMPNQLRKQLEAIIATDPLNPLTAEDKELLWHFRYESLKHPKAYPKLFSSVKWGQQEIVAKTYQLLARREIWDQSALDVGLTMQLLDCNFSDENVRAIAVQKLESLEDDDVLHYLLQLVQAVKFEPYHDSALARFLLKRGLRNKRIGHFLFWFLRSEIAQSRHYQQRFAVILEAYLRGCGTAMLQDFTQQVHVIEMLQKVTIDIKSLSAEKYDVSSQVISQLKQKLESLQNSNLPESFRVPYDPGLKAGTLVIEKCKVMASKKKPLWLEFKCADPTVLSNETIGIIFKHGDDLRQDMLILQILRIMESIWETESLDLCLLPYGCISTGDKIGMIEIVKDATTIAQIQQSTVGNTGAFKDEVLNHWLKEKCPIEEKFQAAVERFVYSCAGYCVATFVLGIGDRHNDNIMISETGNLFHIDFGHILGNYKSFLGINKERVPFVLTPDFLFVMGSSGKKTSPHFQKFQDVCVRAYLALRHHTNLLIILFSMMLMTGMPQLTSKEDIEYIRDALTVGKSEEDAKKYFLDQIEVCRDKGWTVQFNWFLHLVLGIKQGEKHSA
# Assay text: PI3K-γ selective cellular assay: phospho-AKT in C5a stimulated RAW264.7 macrophages
# Assay type: cell-based
# Cond: serum-starved RAW264.7 cells stimulated with C5a
compounds and their reported IC50

Example entries begin here.
Chemical smiles	Target of assay	IC50
C[C@H](NC(=O)c1c(N)nn2cccnc12)c1cc2cccc(OCc3cnn(C)c3)c2c(=O)n1-c1ccccc1	p110 γ (RAW264.7 cells) (Mus musculus (Mouse))	10 to 100 nM
C[C@H](NC(=O)c1c(N)nn2cccnc12)c1cc2cccc(-c3cnn(CC#N)c3)c2c(=O)n1-c1ccccc1	p110 γ (RAW264.7 cells) (Mus musculus (Mouse))	10 to 100 nM
C[C@H](NC(=O)c1c(N)nn2cccnc12)c1cc2cccc(Cl)c2c(=O)n1CCc1nnnn1C	p110 γ (RAW264.7 cells) (Mus musculus (Mouse))	100 to 500 nM

# lookup: IC50 of C[C@H](NC(=O)c1c(N)nn2cccnc12)c1cc2cccc(Cl)c2c(=O)n1-c1cccc(NS(C)(=O)=O)c1
100 to 500 nM

# lookup: IC50 of C[C@H](NC(=O)c1c(N)nn2cccnc12)c1oc2ccc(F)cc2c(=O)c1-c1ccccc1
100 to 500 nM

# lookup: IC50 of C[C@H](NC(=O)c1c(N)nn2cccnc12)c1cc2cccc(Cl)c2c(=O)n1-c1ccccc1O
1 to 10 nM

# lookup: IC50 of C[C@H](NC(=O)c1c(N)nn2cccnc12)c1cc2cccc(Cl)c2c(=O)n1Cc1nnn[nH]1
500 to 1000 nM

# lookup: IC50 of CC(C)C(=O)Cc1cccc2cc([C@H](C)NC(=O)c3c(N)nn4cccnc34)n(-c3ccccc3)c(=O)c12
10 to 100 nM

# lookup: IC50 of C[C@H](NC(=O)c1c(N)nn2cccnc12)c1cc2cccc(Cl)c2c(=O)n1-c1ccc(NS(C)(=O)=O)cc1
1000 to 10000 nM

---

# Target of assay: human Class I PI3 kinase δ (Homo sapiens (Human), UniProt O00329)
# Sequence (O00329 whole entry, canonical isoform): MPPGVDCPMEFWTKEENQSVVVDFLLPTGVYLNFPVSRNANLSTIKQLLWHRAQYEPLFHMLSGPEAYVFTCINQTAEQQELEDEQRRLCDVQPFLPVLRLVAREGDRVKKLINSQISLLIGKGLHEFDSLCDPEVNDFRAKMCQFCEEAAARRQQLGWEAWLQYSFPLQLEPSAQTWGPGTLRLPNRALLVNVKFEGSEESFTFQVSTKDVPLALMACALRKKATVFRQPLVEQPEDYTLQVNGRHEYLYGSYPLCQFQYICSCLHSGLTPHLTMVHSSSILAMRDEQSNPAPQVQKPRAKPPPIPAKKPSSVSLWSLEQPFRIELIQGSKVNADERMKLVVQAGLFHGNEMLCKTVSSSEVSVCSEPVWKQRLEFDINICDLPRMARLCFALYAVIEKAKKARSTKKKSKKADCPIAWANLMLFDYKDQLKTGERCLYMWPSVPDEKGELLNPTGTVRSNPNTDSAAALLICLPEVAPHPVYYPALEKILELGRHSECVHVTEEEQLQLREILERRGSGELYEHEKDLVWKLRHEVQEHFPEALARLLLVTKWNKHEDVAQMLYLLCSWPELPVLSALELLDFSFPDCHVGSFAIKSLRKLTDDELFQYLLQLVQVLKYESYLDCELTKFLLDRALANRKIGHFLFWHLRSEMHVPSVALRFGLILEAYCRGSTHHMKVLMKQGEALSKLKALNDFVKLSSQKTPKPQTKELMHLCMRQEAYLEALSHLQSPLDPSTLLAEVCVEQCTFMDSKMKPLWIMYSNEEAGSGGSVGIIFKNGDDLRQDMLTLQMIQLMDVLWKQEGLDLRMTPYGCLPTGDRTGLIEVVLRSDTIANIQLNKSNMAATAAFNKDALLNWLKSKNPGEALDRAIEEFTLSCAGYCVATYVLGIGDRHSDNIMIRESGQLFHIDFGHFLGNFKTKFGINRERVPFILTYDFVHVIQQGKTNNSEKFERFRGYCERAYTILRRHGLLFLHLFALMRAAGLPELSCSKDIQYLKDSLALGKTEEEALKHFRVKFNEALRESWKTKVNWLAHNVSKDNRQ
# Sequence (P27986 whole entry partner, canonical isoform): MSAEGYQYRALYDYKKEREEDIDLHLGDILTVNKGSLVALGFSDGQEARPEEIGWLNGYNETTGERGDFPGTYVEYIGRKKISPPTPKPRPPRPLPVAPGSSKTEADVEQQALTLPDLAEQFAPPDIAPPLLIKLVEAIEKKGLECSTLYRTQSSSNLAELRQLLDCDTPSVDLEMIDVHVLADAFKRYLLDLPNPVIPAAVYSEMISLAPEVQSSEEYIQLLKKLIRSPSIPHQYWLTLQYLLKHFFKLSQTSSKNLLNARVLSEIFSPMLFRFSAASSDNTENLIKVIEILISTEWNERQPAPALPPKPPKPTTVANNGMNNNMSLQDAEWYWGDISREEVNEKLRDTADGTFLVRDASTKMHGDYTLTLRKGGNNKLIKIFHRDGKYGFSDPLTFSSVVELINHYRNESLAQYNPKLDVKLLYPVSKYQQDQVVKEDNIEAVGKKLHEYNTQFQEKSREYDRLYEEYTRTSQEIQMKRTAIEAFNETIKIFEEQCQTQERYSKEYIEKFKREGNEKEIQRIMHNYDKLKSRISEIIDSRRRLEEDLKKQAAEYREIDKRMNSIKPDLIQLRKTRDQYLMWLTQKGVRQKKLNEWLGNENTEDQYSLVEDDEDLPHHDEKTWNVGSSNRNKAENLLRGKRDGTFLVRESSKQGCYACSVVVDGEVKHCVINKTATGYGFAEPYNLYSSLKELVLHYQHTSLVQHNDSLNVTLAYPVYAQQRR
# Assay text: PI3-Kinase Promega ADP-Glo Max assay, δ isoform
# Cond: 20 nM kinase, 3 mM ATP, 500 uM diC8-PtdInsP; read-out: Promega δ PI3K IC50
Measurement name: IC50

Example entries begin here.
Molecule	IC50
C[C@H](NC(=O)c1c(N)nn2cccnc12)c1cc2cccc(Cl)c2c(=O)n1CCc1nnn(C)n1	1000 to 10000 nM
C[C@H](NC(=O)c1c(N)nn2cccnc12)c1nc2ccccc2c(=O)n1-c1ccccc1	500 to 1000 nM
C[C@H](NC(=O)c1c(N)nn2cccnc12)c1cc2cccc(Cl)c2c(=O)n1-c1ccccc1O	500 to 1000 nM
C[C@H](NC(=O)c1c(N)nn2cccnc12)c1cc2cccc(Cl)c2c(=O)n1C1CCC1	1000 to 10000 nM
C[C@H](NC(=O)c1c(N)nn2cccnc12)c1cc2cccc(Cl)c2c(=O)n1-c1ccccc1F	500 to 1000 nM

Please state recorded IC50 (tested on human Class I PI3 kinase δ (Homo sapiens (Human), UniProt O00329)) of C[C@H](NC(=O)c1c(N)nn2cccnc12)c1nc2ccc(Cl)cc2c(=O)n1-c1ccccc1
1000 to 10000 nM

Please state recorded IC50 (tested on human Class I PI3 kinase δ (Homo sapiens (Human), UniProt O00329)) of Cc1ccccc1-n1c([C@H](C)NC(=O)c2c(N)nn3cccnc23)cc2cccc(Cl)c2c1=O
500 to 1000 nM

Please state recorded IC50 (tested on human Class I PI3 kinase δ (Homo sapiens (Human), UniProt O00329)) of C[C@H](NC(=O)c1c(N)nn2cccnc12)c1cc2cccc(Cl)c2c(=O)n1CCc1nnn[nH]1
1000 to 10000 nM

Please state recorded IC50 (tested on human Class I PI3 kinase δ (Homo sapiens (Human), UniProt O00329)) of C[C@H](NC(=O)c1nc(C2CC2)cnc1N)c1cc2cccc(Cl)c2c(=O)n1-c1ccccc1
1000 to 10000 nM

Please state recorded IC50 (tested on human Class I PI3 kinase δ (Homo sapiens (Human), UniProt O00329)) of C[C@H](NC(=O)c1c(N)nn2cccnc12)c1cc2cccc(Cl)c2c(=O)n1C1CC(NS(C)(=O)=O)C1 (stereo partly drawn)
1000 to 10000 nM
